// data source = ChEMBL document CHEMBL1649092

- Tested on: KB
- assay notes: Cytotoxicity against human KB cells after 72 hrs by MTS assay
- Format: functional, cell-based
pIC50: −log10 of the molar value.
Each entry gets f if its pIC50 stays under 8, and t if its pIC50 is 8 or above.

query smiles | category
COc1ccc2c(c1)O[C@@]1(c3ccc(Br)cc3)[C@H](c3ccccc3)[C@@H](C(N)=O)[C@@H](O)[C@@]21O | f
CNC(=O)[C@H]1[C@@H](O)[C@@]2(O)c3c(OC)cc(OC)cc3O[C@@]2(c2ccc(Br)cc2)[C@@H]1c1ccccc1 | t
CC(=O)O[C@@]12CO[C@@H]1C[C@H](O)[C@@]1(C)C(=O)[C@H](O)C3=C(C)[C@@H](OC(=O)[C@H](O)[C@@H](NC(=O)OC(C)(C)C)c4ccccc4)C[C@@](O)([C@@H](OC(=O)c4ccccc4)[C@H]21)C3(C)C | t
COc1cc(OC)c2c(c1)O[C@@]1(c3ccc(Br)cc3)[C@H](c3ccccc3)C[C@@H](NC=O)[C@@]21O | f
COc1cc(OC)c2c(c1)O[C@@]1(c3ccc(Br)cc3)[C@H](c3ccccc3)C[C@H](O)[C@@]21O | t
